The values you see were collected from patent US5527828A.

system: rat liver microsomes; settings: read-out: Inhibitor Concentration of 50% Inhibition (IC50); RLM (II); LPO initiated by NADPH/cytochrome-P450 metabolism of CCl4; average of 5 experiments; interpolated
pIC50: −log10 of the molar value.
Returns True if the recorded pIC50 is greater than or equal to 3, and False otherwise.

{"Molecule": "CC(C)(C)[N+]([O-])=Cc1ccccc1 [PBN, α-phenyl t-butyl nitrone, reference compound]", "Class Label": "False"}
{"Molecule": "Cc1cc(C=[N+]([O-])C(C)(C)CC(C)(C)C)cc(C)c1O", "Class Label": "True"}
{"Molecule": "CC(C)(C)CC(C)(C)[N+]([O-])=Cc1ccccc1", "Class Label": "False"}
{"Molecule": "CC(C)(C)CC(C)(C)[N+]([O-])=Cc1cc(C(C)(C)C)c(O)c(C(C)(C)C)c1", "Class Label": "True"}
{"Molecule": "Cc1cc(C=[N+]([O-])C(C)(C)C)cc(C)c1O", "Class Label": "True"}
{"Molecule": "CC(C)(C)c1cc(C=[N+]([O-])C(C)(C)C)cc(C(C)(C)C)c1O", "Class Label": "True"}

----------
test system: rat liver microsomes; assay: Inhibition of lipid peroxidation (LPO) initiated by tert-butoxyl radicals in rat liver microsomes, TBA test for MDA (Example 1); settings: rat liver microsomes; from IC50 data of Example 1
Measured Attribute: relative efficiency normalized to 1.0 for PBN

{"Compound": "CC(C)(C)c1cc(C=[N+]([O-])C(C)(C)C)cc(C(C)(C)C)c1O [DBBNP]", "Quantitative Readout": 2466}
{"Compound": "Cc1cc(C=[N+]([O-])C(C)(C)C)cc(C)c1O [DMBNP]", "Quantitative Readout": 46}
{"Compound": "Cc1cc(C=[N+]([O-])C(C)(C)CC(C)(C)C)cc(C)c1O [DMONP]", "Quantitative Readout": 646}
{"Compound": "CC(C)(C)[N+]([O-])=Cc1ccccc1 [PBN, α-phenyl t-butyl nitrone, reference compound]", "Quantitative Readout": 1.0}
{"Compound": "CC(C)(C)CC(C)(C)[N+]([O-])=Cc1ccccc1 [OPN, N-tert-octyl C-phenyl nitrone]", "Quantitative Readout": 24}
{"Compound": "Cc1c(C)c2c(c(C)c1O)CCC(C)(CCCC(C)CCCC(C)CCCC(C)C)O2 (stereo not drawn) [Tocopherol, α-tocopherol, reference compound]", "Quantitative Readout": 354}
{"Compound": "Cc1cc(C(C)(C)C)c(O)c(C(C)(C)C)c1 [BHT, butylated hydroxy toulene, reference compound]", "Quantitative Readout": 2000}
{"Compound": "CC(C)(C)CC(C)(C)[N+]([O-])=Cc1cc(C(C)(C)C)c(O)c(C(C)(C)C)c1 [DBONP]", "Quantitative Readout": 1828}

----------
Property: IC50; scope: individual molecules
tested on: rat brain microsomes; experiment: Inhibition of LPO in rat brain microsomes, TBA test for MDA production (Example 3); format: biochemical; conditions: rat brain microsomes; value in parentheses; read-out: IC50 RBM (III)
Measured Attribute: IC50 (nM)

{"Molecule": "CC(C)(C)c1cc(C=[N+]([O-])C(C)(C)C)cc(C(C)(C)C)c1O [DBBNP]", "Quantitative Readout": 700}
{"Molecule": "CC(C)(C)CC(C)(C)[N+]([O-])=Cc1cc(C(C)(C)C)c(O)c(C(C)(C)C)c1 [DBONP]", "Quantitative Readout": 300}

----------
system: rat liver microsomes
Measured Attribute: IC50 (µM)

{"Compound": "Cc1cc(C(C)(C)C)c(O)c(C(C)(C)C)c1 [BHT, butylated hydroxy toulene, reference compound]", "Quantitative Readout": 55}
